The measured values listed here are drawn from PubChem BioAssay AID488966.

Documented inhibition across a set of compounds
# TEST_NAME: protection from phage-mediated lysis, alamar blue read-out – E. coli UTI89, K1F phage, bacterial capsule biogenesis inhibitors (AID 488966);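 further: capsule biogenesis inhibitors block K1F phage lysis so surviving cells raise fluorescence; higher fluorescence means more inhibition of phage lysis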
# CONDITION: 2 h; at 100 µM, active compounds read high unless noted
About 55 (0.02%) of roughly 340,000 compounds were called active. Only a sample is shown. Results with a measured potency or affinity are listed apart.

[[record]]
compound = "CCOc1ccc(C(=O)NN2C(=O)C3C4C=CC(O4)C3C2=O)cc1 (stereo not drawn)"
test_value = "0.49% (inactive)"


Q: Name the reported inhibition value associated with the compound COc1ccc(N2C(=O)C(CC(=O)Nc3ccccc3)N(Cc3cccs3)C2=O)cc1 (stereo not drawn)
A: -4.46% (inactive)

Q: Which inhibition is reported for this compound? CCC1(CC)C(=O)NC(=O)NC1=NCCc1c[nH]c2ccccc12
A: 8.91% (inactive)

Q: Can you share its inhibition? I mean this compound: COc1ccc2c(c1)C1=C(CC2)C(c2ccc(C)cc2)NC(=S)N1 (stereo not drawn)
A: -0.41% (inactive)

Q: Using the record for Cc1cccc2c1nc(-c1ccccc1)n1nnnc21 , report its inhibition.
A: -2.7% (inactive)
